# measured-on: full-length human PIKFYVE (N-terminal GST-fusion) (Homo sapiens (Human), UniProt Q9Y2I7, L932S/Q1183K/Q995L/S1033A/S696N/T998S)
# Sequence (Q9Y2I7 whole entry S696N/L932S/Q995L/T998S/S1033A/Q1183K, the tested form may be a part): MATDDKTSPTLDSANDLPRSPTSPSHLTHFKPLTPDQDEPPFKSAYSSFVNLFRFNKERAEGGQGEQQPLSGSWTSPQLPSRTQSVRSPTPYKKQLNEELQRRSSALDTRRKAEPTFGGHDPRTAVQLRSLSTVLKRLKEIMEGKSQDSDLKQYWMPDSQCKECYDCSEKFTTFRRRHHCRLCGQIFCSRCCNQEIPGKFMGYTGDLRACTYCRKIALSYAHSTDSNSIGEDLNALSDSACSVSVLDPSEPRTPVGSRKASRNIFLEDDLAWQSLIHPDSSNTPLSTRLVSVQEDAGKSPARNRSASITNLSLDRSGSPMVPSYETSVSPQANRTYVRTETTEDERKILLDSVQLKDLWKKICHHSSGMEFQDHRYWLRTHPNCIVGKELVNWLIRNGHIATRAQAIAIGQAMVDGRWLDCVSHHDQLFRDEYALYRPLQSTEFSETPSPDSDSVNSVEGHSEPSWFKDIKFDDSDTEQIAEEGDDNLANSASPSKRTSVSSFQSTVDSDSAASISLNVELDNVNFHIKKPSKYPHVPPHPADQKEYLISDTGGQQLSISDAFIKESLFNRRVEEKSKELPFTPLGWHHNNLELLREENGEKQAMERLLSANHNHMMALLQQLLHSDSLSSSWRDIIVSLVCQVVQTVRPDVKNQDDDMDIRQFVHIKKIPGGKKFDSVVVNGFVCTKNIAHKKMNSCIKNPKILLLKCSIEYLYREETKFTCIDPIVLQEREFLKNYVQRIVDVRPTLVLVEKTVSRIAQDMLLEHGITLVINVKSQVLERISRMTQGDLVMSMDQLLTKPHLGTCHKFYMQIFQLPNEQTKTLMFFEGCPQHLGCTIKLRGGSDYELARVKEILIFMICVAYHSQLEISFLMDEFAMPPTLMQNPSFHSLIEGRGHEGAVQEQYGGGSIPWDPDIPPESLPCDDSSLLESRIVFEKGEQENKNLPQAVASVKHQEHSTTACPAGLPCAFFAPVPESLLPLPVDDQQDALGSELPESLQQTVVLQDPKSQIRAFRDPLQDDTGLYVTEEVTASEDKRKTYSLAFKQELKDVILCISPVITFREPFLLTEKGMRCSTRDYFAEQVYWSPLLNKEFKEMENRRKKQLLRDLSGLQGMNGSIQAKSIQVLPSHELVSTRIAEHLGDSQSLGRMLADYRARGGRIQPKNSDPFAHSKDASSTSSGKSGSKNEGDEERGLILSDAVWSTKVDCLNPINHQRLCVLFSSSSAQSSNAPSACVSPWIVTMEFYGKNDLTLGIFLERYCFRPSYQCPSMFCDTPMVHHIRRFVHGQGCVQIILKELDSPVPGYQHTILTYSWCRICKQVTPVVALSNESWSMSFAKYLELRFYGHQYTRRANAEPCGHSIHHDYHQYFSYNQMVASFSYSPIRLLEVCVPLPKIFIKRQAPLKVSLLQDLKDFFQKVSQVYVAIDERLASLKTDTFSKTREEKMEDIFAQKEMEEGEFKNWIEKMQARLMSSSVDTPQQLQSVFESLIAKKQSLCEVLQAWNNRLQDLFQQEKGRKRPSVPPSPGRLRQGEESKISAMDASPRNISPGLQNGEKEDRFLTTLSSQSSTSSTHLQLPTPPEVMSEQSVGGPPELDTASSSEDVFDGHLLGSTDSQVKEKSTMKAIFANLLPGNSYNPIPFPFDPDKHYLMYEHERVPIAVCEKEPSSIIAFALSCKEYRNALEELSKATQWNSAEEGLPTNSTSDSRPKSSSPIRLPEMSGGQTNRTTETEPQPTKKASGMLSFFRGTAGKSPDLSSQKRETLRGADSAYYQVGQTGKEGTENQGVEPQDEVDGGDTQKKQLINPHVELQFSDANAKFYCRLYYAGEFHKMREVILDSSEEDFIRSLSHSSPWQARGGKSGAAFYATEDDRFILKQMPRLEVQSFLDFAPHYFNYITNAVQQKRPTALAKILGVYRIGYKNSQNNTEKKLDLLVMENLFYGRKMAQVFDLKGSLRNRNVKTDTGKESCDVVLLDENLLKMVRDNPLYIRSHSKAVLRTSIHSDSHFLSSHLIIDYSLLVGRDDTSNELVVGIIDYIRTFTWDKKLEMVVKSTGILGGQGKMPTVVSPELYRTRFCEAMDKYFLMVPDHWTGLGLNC
# test-details: PIKfyve biochemical assay (ADP-Glo Kinase assay, Carna Biosciences)
# measurement-setup: ADP-Glo, full-length human GST-PIKFYVE, 10 μM to 3 nM; read-out: hPIKfyve IC50
pIC50: −log10 of the molar value.
quantity-kind: pIC50

> print(dat)
                                    compound  recorded.result
 1  OCCn1cc(-c2cccc(-n3cccn3)c2)c2nc(N3CCOCC3)nc(-c3ccncc3)c21     6.00 to 7.00
 2  CN1CCC(c2nc(N3CCOCC3)nc3c2CCN3c2ccccc2)C1 (stereo not drawn)     6.00 to 7.00
 3  OCC(O)COc1nc(N2CCOCC2)nc2c1CCN2c1ccccc1 (stereo not drawn)     6.00 to 7.00
 4  c1ccc(N2CCc3c(OCC4CCCO4)nc(N4CCOCC4)nc32)cc1 (stereo not drawn)     6.00 to 7.00
 5  CN1CCCC(COc2nc(N3CCOCC3)nc3c2CCN3c2cnn(C)c2)C1 (stereo not drawn)     5.00 to 6.00
 6  CN1CCn2ncc(-c3c[nH]c4c(-c5ccncc5)nc(N5CCOCC5)nc34)c2C1     6.00 to 7.00
 7  c1ncc(N2CCc3c(OCC4CCOCC4)nc(N4CCOCC4)nc32)cn1     6.00 to 7.00
 8  CC(C)(C)OC(=O)N1CCC(COc2nc(N3CCOCC3)nc3c2CCN3c2cccnc2)C1 (stereo not drawn)     6.00 to 7.00
 9  c1ccc(N2CCc3c(OCCc4ccccn4)nc(N4CCOCC4)nc32)cc1     7.00 to 8.00
10  CN1CCOC(COc2nc(N3CCOCC3)nc3c2CCN3c2cccnc2)C1 (stereo not drawn)     6.00 to 7.00
11  c1ccc(-c2c[nH]c3c(-c4ccncc4)nc(N4CCOCC4)nc23)nc1     7.00 to 8.00
12  c1cncc(N2CCc3c(N4Cc5ccccc5C4)nc(N4CCOCC4)nc32)c1     7.00 to 8.00
13  c1ccc(N2CCc3c(OCCC4CCCO4)nc(N4CCOCC4)nc32)cc1 (stereo not drawn)     6.00 to 7.00
14  c1ccc(N2CCc3c(OCc4ccncc4)nc(N4CCOCC4)nc32)cc1     6.00 to 7.00
15  N#Cc1cccc(N2CCc3c(OCc4cccnc4)nc(N4CCOCC4)nc32)c1     6.00 to 7.00
16  c1ccc(-c2nccc(-c3nc(N4CCOCC4)nc4c3CCN4c3ccncc3)n2)cc1     7.00 to 8.00
17  c1ccc(-c2ccn(-c3nc(N4CCOCC4)nc4c3CCN4c3ccncc3)n2)cc1     7.00 to 8.00
18  c1cncc(N2CCc3c(OCCC4CCCO4)nc(N4CCOCC4)nc32)c1 (stereo not drawn)     7.00 to 8.00
